B1: VH:VL chains; a variant is named by its letters at X, in order (parent)
chain 1: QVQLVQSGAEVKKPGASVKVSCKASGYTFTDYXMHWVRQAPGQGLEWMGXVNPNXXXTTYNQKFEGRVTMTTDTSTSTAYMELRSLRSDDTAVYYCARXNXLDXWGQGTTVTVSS
chain 2: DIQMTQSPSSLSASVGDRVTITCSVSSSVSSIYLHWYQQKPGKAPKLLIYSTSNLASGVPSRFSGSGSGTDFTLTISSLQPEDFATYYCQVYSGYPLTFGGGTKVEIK

Variants of: B1
EXPERIMENTAL_DETAILS: yeast display scFab, FACS + sequencing
CONDITION_CONTEXT: with MET
The other results are listed elsewhere or left out. The hit rate among all sequences tested is not known here.
PROPERTY_LABEL: antigen binding call

Recorded antigen binding call, per entry:
VRRRGSLF: binds
FKGEGSLY: no binding
DRGGDDVV: no binding
VRGRGFVV: binds

Lookup: Data request, read-out antigen binding call, for FKATTVVD chain 1 S88F
Found: no binding

Lookup: Try this variant too: VRERGDWF
Found: no binding

Lookup: Try this variant too: SKEAGYSV
Found: no binding

Lookup: Try this variant too: VRAGGSGD
Found: binds

Lookup: Try this variant too: FRGRGASD
Found: binds

Lookup: Try this variant too: SKGKGAWY
Found: binds

Lookup: Try this variant too: VRARGSSF
Found: binds
